test system: SNB-75 CNS; experiment: NCI-60 one-dose screen, 48 h (100 = growth as untreated, 0 = no growth, -100 = all killed); settings: 10 µM unless noted
This is part of a sample that, as a whole, favours compounds with a hit. Of some 83,000 tested, about 20% had one in any assay.
Decide by growth: equal to or exceeding 60% means satisfied, less means not satisfied.

Use these answered entries as a reference point.
molecule | target-under-test | discrete-label
C=C1C(=O)O[C@H]2[C@H]1CC/C(COC(=O)/C=C\C(=O)NCc1ccc(Cn3c(=O)sn(-c4ccc(Cl)cc4)c3=O)cc1)=C\CC[C@@]1(C)O[C@@H]21 | SNB-75 CNS | not satisfied
CCOC(=O)c1c(C)nc2c(c1N)/C(=C/c1cc(OC)c(OC)c(OC)c1)C(=O)N2c1ccc(OC)cc1 | SNB-75 CNS | satisfied
C=CCN1C(=O)[C@]2(SC1=S)[C@H](c1cccc(Cl)c1)CN(C)[C@]21C(=O)NC2C=CC(Cl)=C[C@H]21 (stereo not given in full) | SNB-75 CNS | not satisfied

# input # check: growth of CCCCNC(=O)NS(=O)(=O)c1ccc(N2N=C(c3ccc(C)cc3C)CC2c2ccc(N(C)C)cc2)cc1 (stereo not given) is greater than or equal to 60%
# output satisfied

# input Determine whether measured growth meets or exceeds 60% for "O=C1Nc2ccc(Cl)cc2/C1=N/N=C/c1c[nH]c2ccccc12"
# output not satisfied
